Reported values of human MASP1 IC50 for individual entries
# Tgt: T1, recombinant human MASP1 active protease (amino acids 297-699, C-terminal His Tag) (human, UniProt P48740 297-699)
# T1 sequence: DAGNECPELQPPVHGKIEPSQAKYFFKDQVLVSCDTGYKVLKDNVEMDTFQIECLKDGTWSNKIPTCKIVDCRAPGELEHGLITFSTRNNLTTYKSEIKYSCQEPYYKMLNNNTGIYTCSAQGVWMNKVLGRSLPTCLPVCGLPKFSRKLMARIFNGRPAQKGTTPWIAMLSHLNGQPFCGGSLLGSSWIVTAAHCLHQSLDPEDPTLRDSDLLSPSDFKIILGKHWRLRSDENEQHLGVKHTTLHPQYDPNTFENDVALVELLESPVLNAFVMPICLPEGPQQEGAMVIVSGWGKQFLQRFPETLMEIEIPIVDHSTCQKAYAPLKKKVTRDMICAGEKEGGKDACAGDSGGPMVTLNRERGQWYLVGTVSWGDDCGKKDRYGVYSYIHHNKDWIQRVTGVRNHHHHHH
# Assay Procedure: cell-based or functional assay
Bridge positions count the residues as written; N and C are the ends. Square brackets hold non-standard residues; d marks the D form. Ends that are not written are not given here. Oic = O=C(O)[C@@H]1C[C@@H]2CCCC[C@@H]2N1; tBuAla = CC(C)(C)C[C@H](N)C(=O)O; NMeC = CN[C@@H](CS)C(=O)O

Binder	human MASP1 IC50 [nM]
AICSRS[tBuAla]P[Oic]ICI-NH2 (disulfide 3-11; N-terminus assumed; SMILES CC[C@H](C)[C@H](NC(=O)[C@@H]1CSSC[C@H](NC(=O)[C@@H](NC(=O)[C@H](C)N)[C@@H](C)CC)C(=O)N[C@@H](CO)C(=O)N[C@@H](CCCNC(=N)N)C(=O)N[C@@H](CO)C(=O)N[C@@H](CC(C)(C)C)C(=O)N2CCC[C@H]2C(=O)N2[C@@H](C[C@@H]3CCCC[C@@H]32)C(=O)N[C@@H]([C@@H](C)CC)C(=O)N1)C(N)=O) [AIC+SRS-((tBu)A)-P-(Oic)-IC+I-NH2]	2.7
AICSRS[tBuAla]PP[(2S)‑2‑(Amino)‑2‑((1S,3R)-3-hydroxycyclohexyl)acetic acid][NMeC]IPD-NH2 (disulfide 3-11) [AIC+SRS-((tBu)A)-PP-((2S)-2-(Amino)-2-[(1S,3R)-3-hydroxycyclohexyl]acetic acid)-((N-Me)C)+IPD-NH2]	3
